From: the NIST ThermoML archive (doi:10.1016/j.jct.2016.09.022)

Measurement setup: 303.15 K; 30100 kPa; Liquid; Frequency=1.5 MHz; Single path-length method
Parameter: speed of sound (m/s)
Answers are plain numbers, in m/s.

Molecule | Endpoint result
CCCCCCCC [octane] | 1336.8
CCCCCC [hexane] | 1266.5

Kindly give each listed record's speed of sound.
1. CCCO [propan-1-ol]
2. CCO [ethanol]
3. Cc1ccccc1 [toluene]
4. CO [methanol]
5. CCCCCCC [heptane]
6. O [water]

[1349.1, 1295, 1424, 1248.1, 1306.4, 1559.5]

###

Measurement setup: 293.15 K; 90100 kPa; Liquid; Frequency=1.5 MHz; Single path-length method
Numbers after ± are expanded uncertainties.
Parameter: speed of sound
Express the reported value numerically, then name its unit.

Smiles str | speed of sound
CCCCCCC | 1602.3 ± 3.4 m/s

Kindly give each listed record's speed of sound.
1. CCO
2. CCCCCC

1: 1555.7 ± 3.2 m/s; 2: 1575.4 ± 3.4 m/s

Kindly give each listed record's speed of sound.
1. CCCO
2. CO
3. Cc1ccccc1
4. O

1605.3 ± 3.3 m/s
1496.7 ± 3.1 m/s
1667.1 ± 3.4 m/s
1632.4 ± 3.3 m/s

Entry under review: CCCCCCCC . Reported speed of sound?
1623.9 ± 3.4 m/s
